Each record here notes measured GI50.
system: SNB-78; assay: NCI tumour cell line growth inhibition, 48 h
The source made the active and inactive calls. Rule as the data show it: active = GI50 up to about 1.1 µM and inactive = higher.

**Q:** # query: GI50 of entry O=c1[nH]c(=O)n(C2OC(CO)C(N(O)Cc3ccc(F)cc3)C2O)cc1Br (stereo not given)
**A:** > 100 µM (inactive)

**Q:** Also check "O=C(c1ccccc1)c1ccc2cccc(O)c2n1"
**A:** 46.5 µM (inactive)

**Q:** Again, but for COc1cc2c(c(OC)c1OC)CCNC2C1=C(O)COC1=O (stereo not given)
**A:** > 100 µM (inactive)

**Q:** Now the compound "CS(=O)(=O)OCCN1CCN(C(=O)c2cccc3c(Nc4ccc(S(N)(=O)=O)cc4)c4ccccc4nc23)CC1"
**A:** > 100 µM (inactive)

**Q:** Subsequent entry: "O=c1oc2ccccc2n1P(=O)(Oc1ccc(Cl)cc1)n1c(=O)oc2ccccc21"
**A:** > 100 µM (inactive)
